system: A549 cells; conditions: human, 24 h
Quick reference for CC10 (A549) among some compounds
I only need the number, in µM, no unit after it.

Cc1[nH]c2ccc(-c3nnc(SCC(=O)N(C(C)C)C(C)C)o3)cc2c1C; 10.7
Cc1[nH]c2ccc(-c3nnc(SCC(=O)N4CCCCCC4)o3)cc2c1C; 18.2
Cc1[nH]c2ccc(-c3nnc(SCC(=O)N4CCc5ccccc54)o3)cc2c1C; 8.5

Fill blank: measured CC10 (A549) of the compound CN(c1nc(-c2ccc(Br)cc2)cs1)C1CCS(=O)(=O)C1 (stereo not shown) is ____.
11.2

###

assay: Cell viability (cytotoxicity) in A549 cells; details: human, A549 cells
READOUT_KIND: CC50 at 24 h (µM)
I only need the number, in µM, no unit after it.

Fill blank: measured CC50 at 24 h of the molecule Cc1[nH]c2ccc(-c3nnc(SCC(=O)N4CCCC4)o3)cc2c1C is ____.
268

###

tested on: HIV-1 (NL4-3); experiment: microbe, parasite or virus in culture; assay type: cell-based; details: Human immunodeficiency virus 1, NL43, TZM-bl, 48 h, read-out: IC50 against HIV-1 (NL4-3)
READOUT_KIND: IC50 (µM)
I only need the number, in µM, no unit after it.

Fill blank: measured IC50 of the compound Cc1[nH]c2ccc(-c3nnc(SCC(=O)N4CCCC4)o3)cc2c1C [Compound A3] is ____.
0.205

###

assay: in vitro; conditions: mouse
READOUT_KIND: CC50

Fill blank: measured CC50 of the compound Cc1[nH]c2ccc(-c3nnc(SCC(=O)N4CCCC4)o3)cc2c1C is ____.
> 100 µM

###

assay: in vitro; details: human
READOUT_KIND: CC50 at 24 h (µM)
I only need the number, in µM, no unit after it.

CN(C)c1nc(-c2ccc(Br)cc2)cs1; 242

Then this compound:
Fill blank: measured CC50 at 24 h of the compound CN(c1nc(-c2ccc(Br)cc2)cs1)C1CCS(=O)(=O)C1 (centres unmarked) is ____.
110

###

Quick reference for CC10 (A549) among some compounds
test system: A549 cells; conditions: human, 24 h
I only need the number, in µM, no unit after it.

Worked cases, answers included:
CCN(CC)S(=O)(=O)c1ccc(-c2nnc(SCC(=O)N3CCCC3)o2)cc1 [Compound A3-1]; 17.3
CN(Cc1ccccc1)c1nc(-c2ccc([N+](=O)[O-])cc2)cs1 [Compound A35-1]; 10.8
CN(C)c1nc(-c2ccc(Br)cc2)cs1 [Compound A35-5]; 17.8

Then this compound:
Reported CC10 (A549) for A549 cells, given O=C(CSc1nnc(-c2cc3ccccc3o2)o1)N1CCCC1 [Compound A3-9] ?
10.9

###

Quick reference for CC10 (A549) among some molecules
tested on: A549 cells; conditions: human, 24 h
I only need the number, in µM, no unit after it.

Worked cases, answers included:
O=C(CSc1nnc(-c2cccnc2)o1)N1CCCC1; 32.6
CN(c1nc(-c2ccccc2)cs1)C1CCS(=O)(=O)C1 (stereo not shown); 12.2
Cc1[nH]c2ccc(-c3nnc(SCC(=O)N4CCCC4)o3)cc2c1C; 38
Cc1[nH]c2ccc(-c3nnc(SCC(=O)N4CCOCC4)o3)cc2c1C; 10.2

Fill blank: measured CC10 (A549) of the molecule COc1ccc(-c2nnc(SCC(=O)N3CCCC3)o2)cc1 is ____.
11.8

Fill blank: measured CC10 (A549) of the molecule O=C(CSc1nnc(-c2cc3ccccc3[nH]2)o1)N1CCCC1 is ____.
15.2

Fill blank: measured CC10 (A549) of the molecule CCN(CC)C(=O)CSc1nnc(-c2ccc3[nH]c(C)c(C)c3c2)o1 is ____.
29

Fill blank: measured CC10 (A549) of the molecule O=C(CSc1nnc(-c2ccncc2)o1)N1CCCC1 is ____.
11.5

Fill blank: measured CC10 (A549) of the molecule Nc1nc(-c2ccc(Cl)cc2)cs1 is ____.
11.4

Fill blank: measured CC10 (A549) of the molecule CN(c1ccc(O)cc1)c1nc(-c2ccc(Cl)cc2)cs1 is ____.
6
